Here, each record is paired with measured pIC50 data.
EXPERIMENTAL_SYSTEM: UniProt:P09619
EXPERIMENT_SUMMARY: Inhibition of PDGFRβ kinase activity (HTRF KinEASE-TK)
RECORDED_CONDITIONS: biochemical, HTRF KinEASE-TK
pIC50: −log10 of the molar value.

Consider the following illustrative entries.
Cc1cc(F)c(C(=O)Nc2ccc(O[C@H]3CCOC3)cn2)cc1NC(=O)c1cnc(N)s1 ... < 6.00
Cc1cc(F)c(C(=O)Nc2ccc(COCC3CC3)cn2)cc1NC(=O)c1cnc(N)s1 ... < 6.00
CO[C@H](C)c1ccc(NC(=O)c2cc(NC(=O)c3cnc(N)s3)c(C)cc2F)nc1 ... 6.00 to 7.00
Cc1cc(F)c(C(=O)Nc2ccc(OC3COC4(CC4)C3)cn2)cc1NC(=O)c1cnc(N)s1 (centres unmarked) ... < 6.00
Cc1cc(F)c(C(=O)Nc2cc(C(F)(F)F)ccn2)cc1NC(=O)c1cnc(N)s1 ... > 7.00

Kindly note: UniProt:P09619, Cc1cc(F)c(C(=O)Nc2ccc(C(C)(O)C(F)(F)F)cn2)cc1NC(=O)c1cnc(N)s1 (centres unmarked) , pIC50 value reported: > 7.00

UniProt:P09619 assay, molecule "Cc1cc(F)c(C(=O)Nc2ccc(COC(F)F)cn2)cc1NC(=O)c1cnc(N)s1" , recorded pIC50 = > 7.00

Entry "Cc1ncc(C(=O)Nc2cc(C(=O)Nc3ccc(C4CC4)nn3)c(F)cc2C)s1" , tested on UniProt:P09619, has a reported pIC50 of < 6.00

---

EXPERIMENTAL_SYSTEM: PDGFRβ (Homo sapiens (Human))
EXPERIMENT_SUMMARY: Inhibition of PDGFRβ kinase activity (HTRF KinEASE-TK)
RECORDED_CONDITIONS: biochemical
QUANTITY_KIND: IC50

// below: answered molecules
Cc1ncc(C(=O)Nc2cc(C(=O)Nc3cnc(OCC(C)(F)F)cn3)c(F)cc2C)s1 [Example 4] ... > 1000 nM
Cc1cc(F)c(C(=O)Nc2ccc(OC(F)F)cn2)cc1NC(=O)c1cnc(N)s1 [Example 9] ... 100 to 1000 nM
Cc1ncc(C(=O)Nc2cc(C(=O)Nc3ccc(OC4CC4)cn3)c(F)cc2C)s1 [Example 2] ... > 1000 nM
Cc1cc(F)c(C(=O)Nc2ccc(CC(F)(F)F)cn2)cc1NC(=O)c1cnc(N)s1 [Example 11] ... < 100 nM
COCc1ccc(NC(=O)c2cc(NC(=O)c3cnc(N)s3)c(C)cc2F)nc1 [Example 10] ... > 1000 nM
Cc1ncc(C(=O)Nc2cc(C(=O)Nc3ccc(C4CC4)cn3)c(F)cc2C)s1 [Example 3] ... > 1000 nM

Fill in: PDGFRβ (Homo sapiens (Human)) IC50 for Cc1ncc(C(=O)Nc2cc(C(=O)Nc3ccc(CC4CC4)cn3)c(F)cc2C)s1 [Example 5] = > 1000 nM

---

Known pIC50 of a selection of compounds
EXPERIMENTAL_SYSTEM: PDGFRβ (Homo sapiens (Human))
EXPERIMENT_SUMMARY: Inhibition of PDGFRβ kinase activity (HTRF KinEASE-TK)
RECORDED_CONDITIONS: biochemical, HTRF KinEASE-TK
pIC50: −log10 of the molar value.

Examples from the recorded data:
Cc1ncc(C(=O)Nc2cc(C(=O)Nc3cccc(CC(F)(F)F)n3)c(F)cc2C)s1 ... < 6.00
Cc1ncc(C(=O)Nc2cc(C(=O)NCc3ccc(C(F)(F)F)cc3)c(F)cc2C)s1 ... < 6.00
Cc1cc(F)c(C(=O)NCC2(F)CCC2)cc1NC(=O)c1cnc(N)s1 ... 6.00 to 7.00
Cc1ncc(C(=O)Nc2cc(C(=O)Nc3ccc(OC(C)C)cn3)c(F)cc2Cl)s1 ... < 6.00

"Cc1ncc(C(=O)Nc2cc(C(=O)Nc3cnc(OC[C@@H]4CC4(F)F)cn3)c(F)cc2C)s1" tested on PDGFRβ (Homo sapiens (Human)) gave pIC50: < 6.00

Param item: "Cc1cnc(NC(=O)c2cc(NC(=O)c3cnc(N)s3)c(C)cc2F)s1" ; param system: PDGFRβ (Homo sapiens (Human)); output pIC50: 6.00 to 7.00

The measured pIC50 that "CO[C@H]1C[C@@H](NC(=O)c2cc(NC(=O)c3cnc(N)s3)c(C)cc2F)C1" showed for PDGFRβ (Homo sapiens (Human)) is < 6.00

pIC50 value, target or system PDGFRβ (Homo sapiens (Human)), for "Cc1cc(F)c(C(=O)Nc2ccn([C@H]3CCOC3)n2)cc1NC(=O)c1cnc(N)s1" : < 6.00

---

EXPERIMENTAL_SYSTEM: PDGFRα (Homo sapiens (Human))
Sequence (P16234 24-1089): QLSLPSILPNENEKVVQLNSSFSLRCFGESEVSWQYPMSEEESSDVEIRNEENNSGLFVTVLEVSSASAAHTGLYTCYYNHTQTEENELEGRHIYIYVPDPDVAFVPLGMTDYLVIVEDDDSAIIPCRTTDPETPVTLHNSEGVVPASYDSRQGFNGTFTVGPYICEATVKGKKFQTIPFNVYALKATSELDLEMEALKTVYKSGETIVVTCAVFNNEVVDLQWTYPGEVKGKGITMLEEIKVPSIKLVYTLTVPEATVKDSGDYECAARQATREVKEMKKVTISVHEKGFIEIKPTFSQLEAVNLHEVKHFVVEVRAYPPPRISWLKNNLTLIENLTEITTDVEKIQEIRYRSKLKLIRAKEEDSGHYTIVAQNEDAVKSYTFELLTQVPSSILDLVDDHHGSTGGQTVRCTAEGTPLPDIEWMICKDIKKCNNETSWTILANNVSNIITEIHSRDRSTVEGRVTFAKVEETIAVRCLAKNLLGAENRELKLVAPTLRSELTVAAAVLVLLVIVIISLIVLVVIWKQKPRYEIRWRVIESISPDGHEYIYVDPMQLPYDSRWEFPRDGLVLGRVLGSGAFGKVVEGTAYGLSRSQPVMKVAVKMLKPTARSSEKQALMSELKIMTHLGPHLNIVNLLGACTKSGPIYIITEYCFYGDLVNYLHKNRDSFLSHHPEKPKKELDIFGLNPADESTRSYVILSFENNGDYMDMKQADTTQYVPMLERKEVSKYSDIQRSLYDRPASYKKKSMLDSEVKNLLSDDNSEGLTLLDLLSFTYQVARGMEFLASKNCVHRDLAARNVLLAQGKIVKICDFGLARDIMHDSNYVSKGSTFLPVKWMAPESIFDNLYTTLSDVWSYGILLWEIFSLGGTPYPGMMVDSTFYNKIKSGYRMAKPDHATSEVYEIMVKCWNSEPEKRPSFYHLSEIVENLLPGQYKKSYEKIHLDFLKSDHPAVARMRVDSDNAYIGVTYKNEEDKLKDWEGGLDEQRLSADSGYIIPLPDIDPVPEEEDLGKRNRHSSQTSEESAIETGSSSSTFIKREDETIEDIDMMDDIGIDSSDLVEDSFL
EXPERIMENT_SUMMARY: Inhibition of PDGFRα kinase activity (HTRF KinEASE-TK)
RECORDED_CONDITIONS: biochemical, HTRF KinEASE-TK
Measured IC50 of individual entries

Consider the worked cases shown below.
Nc1ncc(C(=O)Nc2cc(C(=O)Nc3ccc(C4CC4)nn3)c(F)cc2Cl)s1 [Example 201] ... > 1000 nM
Cc1ncc(C(=O)Nc2cc(C(=O)NCc3ccc(OC(F)(F)F)cc3)c(F)cc2C)s1 [Example 267] ... > 1000 nM

Now for another entry.
Per the records, this molecule ( Cc1cc(F)c(C(=O)N[C@H]2CCOC2)cc1NC(=O)c1cnc(NC(=O)N2CCC2)s1 [Example 102] ) has IC50 equal to > 1000 nM

---

Listing of recorded IC50 by entry.
EXPERIMENTAL_SYSTEM: PDGFRβ (Homo sapiens (Human), UniProt P09619)
Sequence (P09619 33-1106): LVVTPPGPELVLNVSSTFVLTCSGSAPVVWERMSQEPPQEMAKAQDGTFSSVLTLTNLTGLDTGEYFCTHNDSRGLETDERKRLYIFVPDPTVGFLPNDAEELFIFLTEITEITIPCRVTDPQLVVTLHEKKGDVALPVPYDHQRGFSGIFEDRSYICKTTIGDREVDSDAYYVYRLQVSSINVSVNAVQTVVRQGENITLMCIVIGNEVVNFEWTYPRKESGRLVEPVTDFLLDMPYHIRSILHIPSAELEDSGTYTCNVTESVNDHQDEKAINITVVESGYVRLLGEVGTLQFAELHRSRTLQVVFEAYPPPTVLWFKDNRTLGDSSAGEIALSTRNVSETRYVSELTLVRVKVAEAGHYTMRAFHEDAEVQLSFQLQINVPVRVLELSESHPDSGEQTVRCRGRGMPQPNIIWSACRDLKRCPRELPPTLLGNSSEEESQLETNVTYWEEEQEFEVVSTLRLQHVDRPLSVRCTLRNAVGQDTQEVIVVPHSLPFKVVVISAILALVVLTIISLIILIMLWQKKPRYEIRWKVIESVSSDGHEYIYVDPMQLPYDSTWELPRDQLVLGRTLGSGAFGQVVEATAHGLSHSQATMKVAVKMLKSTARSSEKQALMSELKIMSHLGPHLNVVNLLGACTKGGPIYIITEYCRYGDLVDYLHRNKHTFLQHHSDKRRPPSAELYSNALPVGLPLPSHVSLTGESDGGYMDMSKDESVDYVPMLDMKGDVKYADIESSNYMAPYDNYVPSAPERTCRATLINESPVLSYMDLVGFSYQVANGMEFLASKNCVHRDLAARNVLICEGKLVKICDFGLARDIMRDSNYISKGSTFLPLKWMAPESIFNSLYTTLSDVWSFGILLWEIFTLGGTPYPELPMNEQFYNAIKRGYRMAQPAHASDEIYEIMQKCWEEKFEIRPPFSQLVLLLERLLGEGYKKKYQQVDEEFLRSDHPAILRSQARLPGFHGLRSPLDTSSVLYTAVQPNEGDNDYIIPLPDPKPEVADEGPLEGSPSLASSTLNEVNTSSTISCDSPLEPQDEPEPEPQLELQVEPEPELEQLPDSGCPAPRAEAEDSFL
EXPERIMENT_SUMMARY: Inhibition of PDGFRβ kinase activity (HTRF KinEASE-TK)
RECORDED_CONDITIONS: biochemical, HTRF KinEASE-TK

For orientation, consider the following solved cases.
Cc1cc(F)c(C(=O)Nc2cnn(C(C)C)n2)cc1NC(=O)c1cnc(N)s1 ... 100 to 1000 nM
Cc1cc(F)c(C(=O)NCc2ccn(C(C)C)n2)cc1NC(=O)c1cnc(N)s1 ... 100 to 1000 nM
Cc1ncc(C(=O)Nc2cc(C(=O)Nc3cnc(OCC(F)(F)F)cn3)c(F)cc2C)s1 ... > 1000 nM
COCCn1ccc(NC(=O)c2cc(NC(=O)c3cnc(N)s3)c(C)cc2F)n1 ... > 1000 nM
Cc1ncc(C(=O)Nc2cc(C(=O)Nc3ccc(CC(F)(F)F)cn3)c(F)cc2F)s1 ... > 1000 nM

Summary for this compound, Cc1cc(F)c(C(=O)Nc2ccc(C(F)C(F)(F)F)cn2)cc1NC(=O)c1cnc(N)s1 (stereo not drawn) : IC50 is < 100 nM

# IC50 (compound: "Nc1ncc(C(=O)Nc2cc(C(=O)Nc3ccc(OC(F)F)cn3)c(F)cc2F)s1" ) is > 1000 nM

Lab book: IC50 of "Cc1ncc(C(=O)Nc2cc(C(=O)NCc3ccc(F)cc3)c(F)cc2C)s1" noted as > 1000 nM

Note to self: IC50 recorded for "Cc1cc(F)c(C(=O)Nc2ccc(CN3CCN(C)CC3)cn2)cc1NC(=O)c1cnc(N)s1" was 100 to 1000 nM

The compound "Cc1ncc(C(=O)Nc2cc(C(=O)Nc3ccn(CC4CC4)n3)c(F)cc2C)s1" showed IC50 equal to > 1000 nM

Per the records, this compound ( "Cc1ncc(C(=O)Nc2cc(C(=O)Nc3ccc(OCC(F)(F)F)cn3)c(F)cc2C)s1" ) has IC50 equal to > 1000 nM

The compound identified as "Cc1ncc(C(=O)Nc2cc(C(=O)NCC3(F)CCC3)c(F)cc2C)s1" registered its IC50 at > 1000 nM

---

EXPERIMENTAL_SYSTEM: PDGFRβ (Homo sapiens (Human))
EXPERIMENT_SUMMARY: Inhibition of PDGFRβ kinase activity (HTRF KinEASE-TK)
RECORDED_CONDITIONS: biochemical, HTRF KinEASE-TK
pIC50: −log10 of the molar value.
QUANTITY_KIND: pIC50

Cc1ncc(C(=O)Nc2cc(C(=O)Nc3ccc(C4(C(F)(F)F)CC4)cn3)c(F)cc2C)s1 ... 6.00 to 7.00
Cc1ncc(C(=O)Nc2cc(C(=O)Nc3cnc(OC4CC(F)(F)C4)cn3)c(F)cc2C)s1 ... < 6.00

Recorded pIC50 (molecule "Cc1cc(F)c(C(=O)Nc2ccc(C(F)F)cn2)cc1NC(=O)c1cnc(N)s1" ): 6.00 to 7.00

Short answer for "Cc1ncc(C(=O)Nc2cc(C(=O)Nc3ccc(OCC(F)F)cn3)c(F)cc2C)s1" : pIC50 was < 6.00

Form: molecule = "Cc1cc(F)c(C(=O)Nc2ccc3c(c2)NC(=O)C3(C)C)cc1NC(=O)c1cnc(N)s1" ; pIC50 = > 7.00

pIC50 reading for "Cc1cc(F)c(C(=O)Nc2nc(C3CC3)cs2)cc1NC(=O)c1cnc(N)s1" : 6.00 to 7.00

Documented pIC50 of "CO[C@@H]1CCN(c2cnc(NC(=O)c3cc(NC(=O)c4cnc(C)s4)c(C)cc3F)cn2)C1" : < 6.00

Please fill in: pIC50 reported for "Cc1cc(F)c(C(=O)Nc2ccc3c(n2)COCC3)cc1NC(=O)c1cnc(N)s1" = 6.00 to 7.00

Recorded pIC50 (molecule "Cc1cc(F)c(C(=O)Nc2ccn(CC(C)C)n2)cc1NC(=O)c1cnc(N)s1" ): 6.00 to 7.00

Query "Cc1ncc(C(=O)Nc2cc(C(=O)Nc3cnc(N4CCC[C@H]4C)cn3)c(F)cc2C)s1" yields pIC50 of < 6.00

// "Cc1ncc(C(=O)Nc2cc(C(=O)Nc3ccc(OC4CC4)cn3)c(F)cc2Cl)s1" : pIC50 value = < 6.00
